Reported change in vivo at 6.2 mg/kg values for a set of compounds
Tested on: adult mongrel dogs
Experiment: Renal vasodilating activity in anesthetized dogs
Type: in vivo, mongrel dog
Conditions: Canis lupus familiaris, dose 6.2 mpk, relative to controls, read-out: RVR: percent change in renal vascular resistance
Record the result as number plus unit.

Use these answered entries as a reference point.
CCOc1cc2c([N+](=O)[O-])c(OC(C)=O)nc(C)c2cc1OC: -25%
CCCCCC(=O)Nc1c(OC(=O)N(CC)CC)nc(C)c2cc(OC)c(OC)cc12: -21%
CCOc1cc2c(C)nc(OC(=O)C(C)(C)C)c([N+](=O)[O-])c2cc1OC: -48%
COc1cc2c(C)nc(OS(C)(=O)=O)c([N+](=O)[O-])c2cc1OC: -16%

# change in vivo at 6.2 mg/kg lookup, item CCCCOc1cc2c(C)nc(OC(C)=O)c([N+](=O)[O-])c2cc1OC
-22%
